From: patent US12624309B2

assay-info: Acid-catalyzed hydrolysis of enol ethers in THF/1 M HCl, percent remaining by GC-FID
Format: physicochemical
conditions-used: THF/1M HCl (80:20 v/v), room temperature, 168 h
Response field label takes 1 (yes) when percent remaining, 168 h is strictly below 80% and 0 (no) in all other cases.

compound: CC/C=C\CCOC=Cc1ccc(OC)cc1 [Compound 51, reference compound]
class-assignment: 1 (yes)
//
compound: COC(=O)C(C)(C)OC=C(C)c1ccc(C)cc1
class-assignment: 0 (no)
//
compound: CCCCCC(CC)OC(=O)C(C)OC=Cc1ccccc1 (racemic) [Compound 41, (±)-octan-3-yl 2-(styryloxy)propanoate]
class-assignment: 0 (no)
//
compound: CCC(C)OC(=O)C(C)OC=C(C)c1ccc(OC)cc1 (racemic)
class-assignment: 0 (no)
//
compound: CCCCCC(CC)OC=C(C)c1ccccc1 (centres unmarked) [(1-(octan-3-yloxy)prop-1-en-2-yl)benzene, reference compound]
class-assignment: 1 (yes)
//
compound: CC(=COCCc1ccccc1)c1ccc(C)cc1 [reference compound]
class-assignment: 0 (no)
//
compound: COC(=O)C(C)(C)OC=C(C)c1ccc(OC)cc1
class-assignment: 0 (no)

====

assay-info: Acid-catalyzed hydrolysis of enol ethers in THF/1 M HCl, percent remaining by GC-FID
Type: physicochemical
conditions-used: THF/1M HCl (80:20 v/v), room temperature, 504 h
Classification by percent remaining, 504 h | ranges: bucket A = under 40%, bucket B = from 40% up to 60%, bucket C = 60% and over

compound: CCCCCC(CC)OC=Cc1ccccc1 (centres unmarked) [(2-(octan-3-yloxy)vinyl)benzene, reference compound]
class-assignment: bucket A
//
compound: COC(=O)C(C)(C)OC=C(C)c1ccccc1
class-assignment: bucket C
//
compound: CCC(C)OC(=O)C(C)OC=C(C)c1ccc(OC)cc1 (racemic)
class-assignment: bucket C
//
compound: CC/C=C\CCOC(=O)C(C)OC=C(C)c1ccc(OC)cc1 (racemic)
class-assignment: bucket B
//
compound: CC(=COCCc1ccccc1)c1ccc(C)cc1 [reference compound]
class-assignment: bucket B
//
compound: CC/C=C\CCOC(=O)C(C)OC=Cc1ccccc1 (racemic)
class-assignment: bucket B
//
compound: C(=Cc1ccccc1)OCCc1ccccc1 [(2-phenethoxyvinyl)benzene, reference compound]
class-assignment: bucket A
//
compound: COC(=O)C(C)(C)OC=C(C)c1ccc(OC)cc1
class-assignment: bucket C
//
compound: CC(OC=Cc1ccccc1)C(=O)OCCc1ccccc1 (racemic) [Compound 40, (±)-phenethyl 2-(styryloxy)propanoate]
class-assignment: bucket B
//
compound: CC(=COC(C)(C)CCCC(C)C)c1ccccc1 [reference compound]
class-assignment: bucket A
//
compound: CCCCCC(CC)OC=C(C)c1ccccc1 (centres unmarked) [(1-(octan-3-yloxy)prop-1-en-2-yl)benzene, reference compound]
class-assignment: bucket B

====

assay-info: Acid-catalyzed hydrolysis of enol ethers in THF/1 M HCl, percent remaining by GC-FID
Assay type: physicochemical
conditions-used: THF/1M HCl (80:20 v/v), room temperature, 336 h
Method: Each enol ether was dissolved in a 4:1 THF/1 M HCl mixture and the percent remaining over time measured relative to an internal standard. After mixing, 2 mL of this solution were removed with a volumetric pipet and used to obtain the time zero measurement. 2 mL of 1 M HCl were mixed with the remaining 8 mL of the THF solution. […] The vials were stored at room temperature until analyzed. […] Samples of the organic phase were analyzed by GC-FID. […] The top phase then was analyzed by GC-FID. […]
Labelling: percent remaining, 336 h reported below 80% becomes True; at or above becomes False.

molecule: COC(=O)C(C)(C)OC=C(C)c1ccc(C)cc1 [Compound 28]
class-assignment: False

molecule: CC/C=C\CCOC(=O)C(C)OC=Cc1ccccc1 (racemic) [Compound 39]
class-assignment: True

molecule: CCCCCC(CC)OC=C(C)c1ccccc1 (centres unmarked) [(1-(octan-3-yloxy)prop-1-en-2-yl)benzene, reference compound]
class-assignment: True

molecule: CCC(C)OC(=O)C(C)OC=C(C)c1ccc(C)cc1 (racemic) [Compound 46]
class-assignment: False

molecule: CC(=COCCc1ccccc1)c1ccccc1 [(1-phenethoxyprop-1-en-2-yl)benzene, reference compound]
class-assignment: True

molecule: CCC(C)OC(=O)C(C)OC=C(C)c1ccc(OC)cc1 (racemic) [Compound 49]
class-assignment: True

molecule: CCCCCC(CC)OC(=O)C(C)OC=Cc1ccccc1 (racemic) [Compound 41, (±)-octan-3-yl 2-(styryloxy)propanoate]
class-assignment: False

molecule: CCCCCC(CC)OC=Cc1ccccc1 (centres unmarked) [(2-(octan-3-yloxy)vinyl)benzene, reference compound]
class-assignment: True
